Test system: U937
method.description: MTT cytotoxicity assay, U937
Format: cell-based
condition.details: Homo sapiens, U-937; U937, at 4 h after treatment
pIC50: −log10 of the molar value.
endpoint: pIC50

{"columns": ["compound", "target.system", "endpoint", "numeric.readout"],
 "data": [
  ["CN1CCN(C(=O)C2C(C(=O)O)[C@H]3CC[C@@H]2O3)CC1 (stereo partly shown)", "U937", "pIC50", 5.46]
]}

Data origin, for the record: patent US20210275521A1
